Origin of measurements: patent US20260116910A1

Recorded MRGPRX4 activation, fluorescence change (dF/F0), Average by entry
target: MRGPRX4 (Homo sapiens, UniProt Q96LA9); test: MRGPRX4 activation, Fluo-8 Ca2+ FLIPR assay in HEK293T cells stably expressing MRGPRX4; format: cell-based; details: Conc. (Log[M]) −6
Sequence (Q96LA9 whole entry): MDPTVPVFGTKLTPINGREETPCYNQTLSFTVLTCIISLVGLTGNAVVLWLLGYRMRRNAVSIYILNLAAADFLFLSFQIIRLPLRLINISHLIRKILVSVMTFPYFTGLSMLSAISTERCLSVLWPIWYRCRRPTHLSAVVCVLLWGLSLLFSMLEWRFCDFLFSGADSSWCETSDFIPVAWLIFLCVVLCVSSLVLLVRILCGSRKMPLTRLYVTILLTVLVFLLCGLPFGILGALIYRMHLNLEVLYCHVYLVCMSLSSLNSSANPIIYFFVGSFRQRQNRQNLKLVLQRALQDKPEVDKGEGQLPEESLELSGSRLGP
In your answer, state the number alone without any accompanying words.

// below: answered molecules
molecule | assayValue
CC[C@H]1[C@@H](O)[C@@H]2[C@H](CC[C@]3(C)[C@@H]([C@H](C)CCNC(=O)NS(=O)(=O)C4CCCCC4)CC[C@@H]23)[C@@]2(C)CCCC[C@@H]12 | −0.033
C[C@H](CCC(=O)O)[C@H]1CC[C@H]2[C@@H]3[C@H](O)C[C@@H]4C[C@H](O)CC[C@]4(C)[C@H]3CC[C@]12C [CDCA, chenodeoxycholic acid, reference compound] | −0.057
CC[C@H]1[C@@H](O)[C@@H]2[C@H](CC[C@]3(C)[C@@H]([C@H](C)CC#N)CC[C@@H]23)[C@@]2(C)CCCC[C@@H]12 | −0.037

Query string: Look up MRGPRX4 activation, fluorescence change (dF/F0), Average: "CC[C@H]1[C@@H](OC(=O)c2cccc(I)c2)[C@@H]2[C@H](CC[C@@]3(C)[C@H]2CC[C@]3(Cl)[C@H](C)CCC(=O)OC)[C@@]2(C)CCCC[C@@H]12"
Result string: −0.006

Query string: Likewise for "CC[C@H]1[C@@H](O)[C@@H]2[C@H](CC[C@]3(C)[C@@H]([C@H](C)CCC(=O)NS(=O)(=O)C(C)(C)C)CC[C@@H]23)[C@@]2(C)CCCC[C@@H]12" ?
Result string: 0.002

Query string: Field entry: "C[C@H](CCC(=O)O)[C@H]1CC[C@H]2[C@@H]3CC[C@@H]4C[C@@H](O)CC[C@]4(C)[C@H]3C[C@@H](O)[C@]12C"
Result string: −0.013

Query string: Same lookup for "C[C@H](CC/C=C/C(=O)O)[C@H]1CC[C@H]2[C@@H]3CC[C@@H]4C[C@H](O)CC[C@]4(C)[C@H]3C[C@H](O)[C@]12C" , please.
Result string: −0.035

Query string: Another molecule to look at: "C[C@H](CCCCC(=O)O)[C@H]1CC[C@H]2[C@@H]3CC[C@@H]4C[C@H](O)CC[C@]4(C)[C@H]3CC[C@]12C"
Result string: 0.009
